# credit: the RNAGym collection of RNA variant scans (doi:10.7554/elife.90254)

B1: LINE1-full (parent)
chain: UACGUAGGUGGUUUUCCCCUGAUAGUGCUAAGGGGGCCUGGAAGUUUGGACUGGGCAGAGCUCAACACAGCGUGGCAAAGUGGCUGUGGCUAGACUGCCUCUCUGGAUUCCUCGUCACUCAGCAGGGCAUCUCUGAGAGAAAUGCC

Variants of: B1
PROTOCOL: self-cleavage, relative activity (ratio to wild type); higher = more cleavage; in vitro, sequencing; the parent is a self-cleaving ribozyme
The label depends only on self-cleavage: TRUE if it is at least 0.9, FALSE if it is smaller.

* A2U A50G | FALSE

Form field: self-cleavage at least 0.9? Entry: A30U U81C TRUE

Quick check, self-cleavage >= 0.9? U39C G126A TRUE

// inclusive: self-cleavage at least 0.9? input: A65U U73C FALSE
